- TESTED_SYSTEM: USP7 (Homo sapiens)
- Construct: full length human USP7 protein
- Sequence (Q93009 whole entry): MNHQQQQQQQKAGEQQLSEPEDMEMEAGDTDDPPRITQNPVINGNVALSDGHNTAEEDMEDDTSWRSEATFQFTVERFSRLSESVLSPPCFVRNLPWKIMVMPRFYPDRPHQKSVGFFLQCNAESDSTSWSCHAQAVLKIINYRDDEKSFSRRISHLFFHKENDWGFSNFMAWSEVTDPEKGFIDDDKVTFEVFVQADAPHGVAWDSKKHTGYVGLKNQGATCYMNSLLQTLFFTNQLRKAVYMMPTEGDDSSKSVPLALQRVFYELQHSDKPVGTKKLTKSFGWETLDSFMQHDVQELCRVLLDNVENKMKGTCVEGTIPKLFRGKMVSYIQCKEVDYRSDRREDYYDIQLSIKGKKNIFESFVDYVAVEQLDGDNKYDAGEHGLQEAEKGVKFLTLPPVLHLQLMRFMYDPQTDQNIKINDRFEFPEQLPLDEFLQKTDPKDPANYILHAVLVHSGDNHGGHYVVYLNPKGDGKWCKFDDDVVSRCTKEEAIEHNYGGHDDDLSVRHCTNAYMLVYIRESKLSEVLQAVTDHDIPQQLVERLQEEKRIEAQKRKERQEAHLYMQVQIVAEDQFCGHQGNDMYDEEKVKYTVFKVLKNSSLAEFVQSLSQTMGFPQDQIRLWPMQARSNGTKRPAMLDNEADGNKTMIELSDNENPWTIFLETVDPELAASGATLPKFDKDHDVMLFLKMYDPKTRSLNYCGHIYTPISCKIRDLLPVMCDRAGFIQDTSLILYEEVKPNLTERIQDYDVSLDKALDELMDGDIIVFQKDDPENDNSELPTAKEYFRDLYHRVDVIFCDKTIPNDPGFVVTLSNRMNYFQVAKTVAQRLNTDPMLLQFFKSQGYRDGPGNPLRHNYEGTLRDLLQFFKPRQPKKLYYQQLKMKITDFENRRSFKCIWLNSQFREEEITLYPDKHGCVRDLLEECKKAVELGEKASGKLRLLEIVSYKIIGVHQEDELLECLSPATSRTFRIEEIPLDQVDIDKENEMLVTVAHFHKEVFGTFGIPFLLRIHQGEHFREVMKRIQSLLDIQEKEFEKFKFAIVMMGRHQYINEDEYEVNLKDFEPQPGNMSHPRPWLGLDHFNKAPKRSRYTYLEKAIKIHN
- EXPERIMENT_DESCRIPTION: USP7, Ub-PLA2 assay
- EXPERIMENTAL_CONDITIONS: Ub-PLA2 / NBD C6-HPC fluorescence, 30 minute preincubation; read-out: EC50 for inhibition of USP7
pEC50: −log10 of the molar value.

MOLECULE	pEC50
CN1CCC(NC(=O)c2cc([N+](=O)[O-])c(Oc3c(Cl)cccc3Cl)s2)CC1 [Example 261]	< 5.00
CC(=O)c1cc([N+](=O)[O-])c(Sc2ccc3c(C)cc(=O)oc3c2)s1 [Example 38]	< 5.00
CN(C)CCCOc1ccc(NC(=O)c2cc([N+](=O)[O-])c(Sc3c(F)cncc3F)s2)cc1 [Example 257]	5.00 to 6.00
COC(=O)c1cc([N+](=O)[O-])c(Sc2nc3cc(Cl)c(F)cc3[nH]2)s1 [Example 265]	5.00 to 6.00
O=C(NC1CCN(C2CC2)CC1)c1cc([N+](=O)[O-])c(Sc2c(Cl)cncc2Cl)s1 [Example 231]	5.00 to 6.00
O=C(NCc1cccc(-c2ccccc2)c1)c1cc([N+](=O)[O-])c(Sc2c(Cl)cncc2Cl)s1 [Example 58]	5.00 to 6.00
CC(C)N1CCC(NC(=O)c2cc([N+](=O)[O-])c(Oc3c(Cl)cncc3Cl)s2)CC1 [Example 260]	< 5.00
CC(C)(C)OC(=O)Nc1ccc(NC(=O)c2cc([N+](=O)[O-])c(Sc3c(Cl)cncc3Cl)s2)cc1 [Example 234]	≥ 6.00
CN(C)CCCOc1cccc(CNC(=O)c2cc([N+](=O)[O-])c(Sc3c(Cl)cncc3Cl)s2)c1 [Example 126]	≥ 6.00
C[S+]([O-])CCCNC(=O)c1cc([N+](=O)[O-])c(Sc2c(Cl)cncc2Cl)s1 (centres unmarked) [Example 244]	5.00 to 6.00
O=C(Nc1cc(-c2ccccc2)n[nH]1)c1cc([N+](=O)[O-])c(Sc2c(Cl)cncc2Cl)s1 [Example 71]	5.00 to 6.00
CC(=O)N1CCC(NC(=O)c2cc([N+](=O)[O-])c(Sc3c(Cl)cncc3Cl)s2)CC1 [Example 232]	5.00 to 6.00
CC(O)c1ccc(NC(=O)c2cc([N+](=O)[O-])c(Sc3c(Cl)cncc3Cl)s2)cc1 (centres unmarked) [Example 131]	≥ 6.00
CN(C)CCC(NC(=O)c1cc([N+](=O)[O-])c(Sc2c(Cl)cncc2Cl)s1)c1ccccc1 (centres unmarked) [Example 200]	≥ 6.00
O=C(NCCCN1CCCCC1)c1cc([N+](=O)[O-])c(Sc2ccc(Cl)cc2Cl)s1 [Example 249]	5.00 to 6.00
COc1cc(NC(=O)c2cc([N+](=O)[O-])c(Sc3c(Cl)cncc3Cl)s2)cc(OC)c1OC [Example 169]	≥ 6.00
CN(C)C1CCN(CCCNC(=O)c2cc([N+](=O)[O-])c(Sc3c(Cl)cncc3Cl)s2)CC1 [Example 224]	5.00 to 6.00
O=C1COc2ccc(Sc3sc(C(=O)Nc4cc(C5CC5)n[nH]4)cc3[N+](=O)[O-])cc2N1 [Example 248]	5.00 to 6.00
CCN1CCC(CNC(=O)c2cc([N+](=O)[O-])c(Sc3c(Cl)cncc3Cl)s2)C1 (centres unmarked) [Example 91]	5.00 to 6.00
O=C(Nc1ccc(Br)cc1)c1cc([N+](=O)[O-])c(Sc2c(Cl)cncc2Cl)s1 [Example 152]	≥ 6.00
O=C(NC1CN2CCC1CC2)c1cc([N+](=O)[O-])c(Sc2c(Cl)cncc2Cl)s1 (centres unmarked) [Example 202]	≥ 6.00
CN1CCC(NC(=O)c2cc([N+](=O)[O-])c(Sc3c(Cl)cccc3Cl)s2)CC1 [Example 269]	5.00 to 6.00
N#Cc1cc(C(=O)Nc2cnc3ccccc3c2)sc1Sc1c(Cl)cncc1Cl [Example 207]	5.00 to 6.00
O=C(NCC(=O)N1CCCC(O)C1)c1cc([N+](=O)[O-])c(Sc2c(Cl)cncc2Cl)s1 (centres unmarked) [Example 212]	5.00 to 6.00
CN(C)CCNC(=O)c1cc([N+](=O)[O-])c(Sc2c(Cl)cncc2Cl)s1 [Example 48]	5.00 to 6.00
CC(C)N1CCC(NC(=O)c2cc([N+](=O)[O-])c(Sc3c(Cl)cncc3Cl)s2)CC1 [Example 187]	≥ 6.00
